Each recorded value in this set is attributed to the supplement of paper PMC6897291.

Test system: RIVA
ASSAY_EXPLANATION: growth inhibition by drug plus 177Lu-lilotomab satetraxetan (1 - RLU/untreated control) (fraction); higher = stronger inhibition
ASSAY_SETUP: 100 nM; time (day): 6; 177Lu-lilotomab satetraxetan 0.5 ug/ml
Listed next: entries and their corresponding growth inhibition by drug plus 177Lu-lilotomab satetraxetan.
Provide a numeric answer; units are not to be included.

Look over these answered cases.
Cc1nc(-c2ccc(OCC(C)C)c(C#N)c2)sc1C(=O)O [Febuxostat (Uloric)] : 0.45
COc1cc2nccc(Oc3ccc(NC(=O)C4(C(=O)Nc5ccc(F)cc5)CC4)cc3)c2cc1OC [XL-184 free base (Cabozantinib)] : 0.532
Cc1nnc(C(C)C)n1C1C[C@H]2CC[C@@H](C1)N2CC[C@H](NC(=O)C1CCC(F)(F)CC1)c1ccccc1 (stereo in doubt) [Maraviroc] : 0.584

Please turn your attention to the following entry.
Query: Which growth inhibition by drug plus 177Lu-lilotomab satetraxetan is reported for this molecule? "COc1cc2ncnc(Nc3ccc(F)c(Cl)c3)c2cc1NC(=O)/C=C/CN1CCCCC1"
Response: 0.392

* * *

System: RIVA
ASSAY_EXPLANATION: growth inhibition by drug plus 177Lu-lilotomab satetraxetan (1 - RLU/untreated control) (fraction); higher = stronger inhibition
ASSAY_SETUP: 10 nM; time (day): 4; 177Lu-lilotomab satetraxetan 0.5 ug/ml
RESULT_TYPE: growth inhibition by drug plus 177Lu-lilotomab satetraxetan
Provide a numeric answer; units are not to be included.

Look over these answered cases.
CC(C)C[C@H](NC(=O)[C@@H](O)[C@H](N)Cc1ccccc1)C(=O)O : 0.535
Cc1[nH]c(/C=C2\C(=O)Nc3ccc(S(=O)(=O)Cc4c(Cl)cccc4Cl)cc32)c(C)c1C(=O)N1CCC[C@@H]1CN1CCCC1 : 0.438
CCc1cc(-c2n[nH]c(C)c2-c2ccc3c(c2)OCCO3)c(O)cc1O : 0.547
Nc1nc(Cl)nc2c1ncn2[C@@H]1O[C@H](CO)[C@@H](O)[C@@H]1F : 0.568
CN(C)C[C@@H]1CCn2cc(c3ccccc32)C2=C(C(=O)NC2=O)c2cn(c3ccccc23)CCO1 : 0.561
COc1cc2ncnc(Nc3ccc(F)c(Cl)c3)c2cc1NC(=O)/C=C/CN1CCCCC1 : 0.525

Please turn your attention to the following entry.
Query: Which growth inhibition by drug plus 177Lu-lilotomab satetraxetan is reported for this compound? "Nc1nc(Cl)nc2c1ncn2[C@H]1C[C@H](O)[C@@H](CO)O1"
Response: 0.571

* * *

Listed next: entries and their corresponding growth inhibition by drug plus 177Lu-lilotomab satetraxetan.
Test system: RIVA
ASSAY_EXPLANATION: growth inhibition by drug plus 177Lu-lilotomab satetraxetan (1 - RLU/untreated control) (fraction); higher = stronger inhibition
ASSAY_SETUP: 10 nM; time (day): 4; 177Lu-lilotomab satetraxetan 0.5 ug/ml
Where a name gives a salt, the structure may show the parent alone.
Provide a numeric answer; units are not to be included.

Look over these answered cases.
CC(=O)Nc1cccc(-n2c(=O)n(C3CC3)c(=O)c3c(Nc4ccc(I)cc4F)n(C)c(=O)c(C)c32)c1 : 0.488
Cc1ccc(-n2nc(C(C)(C)C)cc2NC(=O)Nc2ccc(OCCN3CCOCC3)c3ccccc23)cc1 : 0.691
CO[C@H]1/C=C\C=C(/C)C(=O)NC2=CC(=O)C(NCCN(C)C)=C(C[C@@H](C)C[C@H](OC)[C@H](O)[C@@H](C)/C=C(\C)[C@@H]1OC(N)=O)C2=O [17-DMAG HCl (Alvespimycin)] : 0.624
COc1ccc2c(c1)CCC1C2CCC2(C)C(NCCCCCCN3C(=O)C=CC3=O)CCC12 (centres undefined) : 0.561
CNC(=O)[C@@H](NC(=O)[C@H](CC(C)C)[C@H](O)C(=O)NO)C(C)(C)C : 0.438
C[C@]1(c2nc3c(C(N)=O)cccc3[nH]2)CCCN1 : 0.488

Query: Which growth inhibition by drug plus 177Lu-lilotomab satetraxetan is reported for this compound? "COc1nc(-c2ccc3c(c2)OCO3)n(-c2ccc(NC(=O)CSc3ccccc3)cc2)n1"
Response: 0.448

Query: Which growth inhibition by drug plus 177Lu-lilotomab satetraxetan is reported for this compound? "CC(C)C[C@H](NC(=O)[C@H](Cc1ccccc1)NC(=O)c1cnccn1)B(O)O"
Response: 0.969

Query: Which growth inhibition by drug plus 177Lu-lilotomab satetraxetan is reported for this compound? N#CC(c1ccnc(NCCc2cccnc2)n1)c1nc2ccccc2s1 (centres undefined)
Response: 0.419

Query: Which growth inhibition by drug plus 177Lu-lilotomab satetraxetan is reported for this compound? "Cc1csc(-c2nnc(Nc3ccc(Oc4ncccc4-c4ccnc(N)n4)cc3)c3ccccc23)c1"
Response: 0.52

Query: Which growth inhibition by drug plus 177Lu-lilotomab satetraxetan is reported for this compound? COc1cc([C@@H]2c3cc4c(cc3[C@@H](O[C@@H]3O[C@@H]5CO[C@@H](C)O[C@H]5[C@H](O)[C@H]3O)[C@H]3COC(=O)[C@H]23)OCO4)cc(OC)c1O [Etoposide (VP-16)]
Response: 0.51

Query: Which growth inhibition by drug plus 177Lu-lilotomab satetraxetan is reported for this compound? "CCOc1ccc(Cc2cc([C@@H]3O[C@H](CO)[C@@H](O)[C@H](O)[C@H]3O)ccc2Cl)cc1"
Response: 0.635

Query: Which growth inhibition by drug plus 177Lu-lilotomab satetraxetan is reported for this compound? COc1cc2/c(=N/c3ccc(Br)cc3F)nc[nH]c2cc1OCC1CCN(C)CC1 [Vandetanib (Zactima)]
Response: 0.49

Query: Which growth inhibition by drug plus 177Lu-lilotomab satetraxetan is reported for this compound? "OC[C@H]1O[C@@H](n2cnc3c2N=CNC[C@H]3O)C[C@@H]1O"
Response: 0.557
